Test system: OVCAR-4
Assay: NCI tumour cell line growth inhibition, 48 h
Active and inactive are the calls of the source. Cut-off read from the data, not from the text of the source: active = GI50 up to about 1.1 µM and inactive = higher.
Recorded GI50 values for a group of molecules are listed next.

Observe how each entry below is paired with its result.
molecule	GI50
COc1c(OC)c(OC)c(C(=O)/C=C/c2ccccc2)c(OC)c1OC	5.97 µM (inactive)
COc1cc(C2C(C(=O)Nc3ccc(Cl)c(Cl)c3)=C(C)NC(C)=C2C(=O)Nc2ccc(Cl)c(Cl)c2)ccc1O	5.3 µM (inactive)
CCCNC(=S)NNC(=O)CSc1nc(-c2ccccc2)c(-c2ccccc2)[nH]1	45.1 µM (inactive)
COC1=CC23CCCN2CCc2cc4c(cc2C3C1O)OCO4 (stereo not drawn)	44.6 µM (inactive)
CC(=O)O[C@H]1C(=O)[C@]2(C)[C@@H](OC(=O)OCC(O)CO)C[C@H]3OC[C@@]3(OC(C)=O)[C@H]2[C@H](OC(=O)c2ccccc2)[C@]2(O)C[C@H](OC(=O)[C@H](O)[C@@H](NC(=O)c3ccccc3)c3ccccc3)C(C)=C1C2(C)C (stereo partly drawn) [PACLITAXEL CERIBATE]	17 µM (inactive)

Tell me measured GI50 for CCN(CC)C(=S)/N=C(\SC(=S)N(CC)CC)c1ccccc1 please. 27.3 µM (inactive)

State its GI50 for this molecule: Cc1cc(C)n(C(C)(C(=O)Cc2ccccc2)n2nc(C)cc2C)n1 > 100 µM (inactive)

Note down GI50 recorded for CC(C)(C)OC(=O)N[C@H]1CC(=O)c2ccccc2N(CC(=O)O)C1=O > 100 µM (inactive)

====

Tested on: NCI-H522
Experiment: NCI tumour cell line growth inhibition, 48 h
Active and inactive are the calls of the source. Rule as the data show it: active = GI50 up to about 1.1 µM and inactive = higher.
Parameter GI50: see the listing below.

molecule	GI50
Cc1ccc(NC(=O)CC(=O)n2nc(-c3ccccc3)c(/N=N/c3ccccc3Cl)c2-c2ccccc2)cc1	65.8 µM (inactive)

State the measured GI50 (NCI-H522) of CC(C)(C)OC(=O)N[C@H]1CC(=O)c2ccccc2N(CC(=O)O)C1=O > 100 µM (inactive)

Provide NCI-H522 GI50 reading for COc1ccc(C(=O)CC2=Nc3nnc(CCCCCCCc4nnc5n4C(=O)C(CC(=O)c4ccc(OC)cc4)=N5)n3C2=O)cc1 . > 100 µM (inactive)

Provide the reported GI50 (system: NCI-H522) for CC(=O)O[C@H]1C(=O)[C@]2(C)[C@@H](OC(=O)OCC(O)CO)C[C@H]3OC[C@@]3(OC(C)=O)[C@H]2[C@H](OC(=O)c2ccccc2)[C@]2(O)C[C@H](OC(=O)[C@H](O)[C@@H](NC(=O)c3ccccc3)c3ccccc3)C(C)=C1C2(C)C (stereo partly drawn) [PACLITAXEL CERIBATE] < 0.01 µM (active)

Please report the measured GI50 for O=C1NC(=O)C(C(=O)C(=O)Nc2ccc(Br)cc2)C(=O)N1 tested on NCI-H522. > 100 µM (inactive)

Send back NCI-H522 GI50 of COc1cc(OCc2ccc3nc(OC)c(OC)nc3c2)cc(OC)c1OC only. > 10 µM (inactive)

Provide NCI-H522 GI50 reading for O=C1Cc2c([nH]c3ccccc23)-c2cc(Br)ccc2N1 . > 100 µM (inactive)

Specify GI50 for O=C1ON(Cc2ccccc2)C(c2ccccc2)N1c1ccccc1 (stereo not drawn) , system NCI-H522. > 100 µM (inactive)

The values you see were collected from ChEMBL document CHEMBL1201862.
